Where these numbers come from: PubChem BioAssay (NCI)

- Test system: UACC-62 melanoma
- METHOD NOTES: NCI-60 one-dose screen, 48 h (100 = growth as untreated, 0 = no growth, -100 = all killed)
- EXPERIMENTAL SETUP: 10 µM unless noted
Compounds without any hit were thinned out: in the full panel of roughly 83,000, 20% have a hit. Calls of active or inactive are those of the source. The calls were made as follows: active = growth percent below 10; inactive = the rest.
REPORTED METRIC: growth

> print(dat)
                                    compound  reported.metric               val
 1  O=C1CCC(c2c(O)cc(O)c3c(=O)c(O)c(-c4ccc(O)c(O)c4)oc23)N1 (stereo unspecified)           growth  88.5% (inactive)
 2      Nc1nc(Cl)cc(NCCCCNc2cc(Cl)nc(N)n2)n1           growth   101% (inactive)
 3  CCc1c(C)c2cc3nc(NCc4ccccc4)oc3c(C)c2oc1=O           growth  47.1% (inactive)
 4  COc1ccc(-c2nn(-c3ccc(NC(=O)Nc4ccc(Cl)c(Cl)c4)cc3)cc2-c2ccncc2)cc1Cl           growth    9.56% (active)
 5  C[C@]12O[C@H]1[C@H](O)c1c(cc(O)c3c1C(=O)c1cccc(O)c1-3)C2=O           growth  88.2% (inactive)
 6  CCN(CC)CCNC(=O)c1c(C)[nH]c(/C=C2\C(=O)Nc3cc(NC(=O)NC(=O)c4ccc(OC)cc4F)ccc32)c1C           growth   104% (inactive)
 7  CC(CCC(=O)O)[C@H]1CCC2C3C(=O)C[C@@H]4CC(=O)CC[C@]4(C)C3CC(=O)[C@@]21C (stereo partly specified)           growth  93.2% (inactive)
 8  COc1ccc(-c2nn(-c3ccc(NC(=O)c4cc(C(F)(F)F)cc(C(F)(F)F)c4)cc3)cc2-c2ccncc2)cc1Cl           growth  55.6% (inactive)
 9             O=C(N/N=C/c1ccccc1O)c1ccccc1O           growth    24% (inactive)
10  O=C(CNc1cccnc1)Nc1ccc(C(=O)/C=C/c2ccc(Cl)cc2)cc1           growth  84.9% (inactive)
11        Cc1ccc[n+](CC(=O)c2cccc3ccccc23)c1           growth   111% (inactive)
12  O=C(O)c1ccc2nc(-c3ccc(OCCCCCOc4ccc(-c5nc6ccc(C(=O)O)cc6[nH]5)cc4)cc3)[nH]c2c1           growth    53% (inactive)
13                           CC(=O)Cc1cccnc1           growth  95.6% (inactive)
14  O=C(NCCNc1nccc(-c2c(-c3cccc(O)c3)nc3sccn23)n1)c1cc(N2CCOCC2)cc(C(F)(F)F)c1           growth     8.5% (active)
15   COc1cc(/C=C/C(=O)N2CCC=CC2=O)cc(OC)c1OC           growth  40.8% (inactive)
16  COc1cc(CN(c2ccc(Cl)cc2)C2OC(=O)c3ccccc32)cc(OC)c1OC (stereo unspecified)           growth  45.6% (inactive)
